Recorded Ki for the following compounds
Assayed target: cloned human dopamine D3 receptors (Homo sapiens)
Construct: expressed in transfected cells; membrane homogenate
Sequence (P35462 whole entry): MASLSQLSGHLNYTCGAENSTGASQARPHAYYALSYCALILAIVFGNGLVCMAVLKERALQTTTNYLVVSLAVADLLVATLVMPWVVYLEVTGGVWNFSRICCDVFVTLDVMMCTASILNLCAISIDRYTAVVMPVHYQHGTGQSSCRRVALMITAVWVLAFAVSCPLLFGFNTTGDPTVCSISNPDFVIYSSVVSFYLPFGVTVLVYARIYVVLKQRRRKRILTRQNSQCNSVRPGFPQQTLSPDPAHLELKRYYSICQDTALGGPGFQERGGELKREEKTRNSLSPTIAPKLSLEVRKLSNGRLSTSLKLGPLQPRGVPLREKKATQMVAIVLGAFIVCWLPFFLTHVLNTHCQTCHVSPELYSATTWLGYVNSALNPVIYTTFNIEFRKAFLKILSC
Assay protocol: [N-Methyl-3H]Spiroperidol binding to cloned human dopamine D3 receptors
Details: read-out: D3 Ki
Answer in nM, number only, no unit symbol.

A selection of reference data follows.
> print(dat)
                                   compound                            assayed.target  value.type  reported.value
1  O=C(NC1CCN(Cc2ccc3ccccc3c2)CC1)C1CC1CN1CCC(c2noc3ccsc23)CC1 (racemic)  cloned human dopamine D3 receptors (Homo sapiens)          Ki           0.117
2  CCC1CCC(NC(=O)C2CC2CN2CCN(Cc3ccccc3)CC2)CC1 (racemic)  cloned human dopamine D3 receptors (Homo sapiens)          Ki            89.5
3  Cc1ccc(CN2CCC(NC(=O)[C@@H]3C[C@H]3CN3CCC(c4noc5ccsc45)CC3)CC2)cc1  cloned human dopamine D3 receptors (Homo sapiens)          Ki           0.962

Continue with the compound presented below.
The measured Ki associated with O=C(NCc1ccco1)C1CC1CN1CCC(c2noc3ccsc23)CC1 (racemic) reads 391
